Reference source: ChEMBL document CHEMBL1759839

system: Staphylococcus aureus; test: Antibacterial activity against Staphylococcus aureus ATCC 25923 after 24 hrs; format: functional; conditions: ATCC 25923, 24 h
Response field label: string, one of y (MIC strictly below 200 µg/mL) or n.

{"columns": ["Structure smiles", "Class label"],
 "data": [
  ["O=C(CC(=O)c1ccc(O[C@@H]2O[C@H](CO)[C@@H](O)[C@H](O)[C@H]2O)cc1O)c1ccc(Cl)cc1", "y"],
  ["O=C(CC(=O)c1ccc(O[C@@H]2O[C@H](CO)[C@@H](O)[C@H](O)[C@H]2O)cc1O)c1ccccc1", "n"],
  ["COc1cccc(C(=O)CC(=O)c2ccc(O[C@@H]3O[C@H](CO)[C@@H](O)[C@H](O)[C@H]3O)cc2O)c1", "n"],
  ["COc1ccc(C(=O)CC(=O)c2ccc(O[C@@H]3O[C@H](CO)[C@@H](O)[C@H](O)[C@H]3O)cc2O)cc1", "n"],
  ["Cc1cccc(C(=O)CC(=O)c2ccc(O[C@@H]3O[C@H](CO)[C@@H](O)[C@H](O)[C@H]3O)cc2O)c1", "y"]
]}

Next:
Request: Please state whether MIC is below 200 µg/mL for `CC1(C)S[C@@H]2[C@H](NC(=O)[C@H](N)c3ccccc3)C(=O)N2[C@H]1C(=O)O`
Result: y
